I'd appreciate it if you could supply GI50 values for the items below.

Tested system U251 CNS; GI50 recorded for Cc1csc2[n+]1-c1ccccc1N(C(=O)Nc1ccccc1)C(C)C2 (configuration not stated) was 69.4 µM

Tested system U251 CNS; GI50 recorded for COC(=O)c1ccc(CN2C(=O)C(Cl)=C(Nc3cccc(Cl)c3C)C2=O)cc1 was 32.4 µM

Tested system U251 CNS; GI50 recorded for Nc1ccc(C2=CC(c3ccc(Cl)cc3)N3C=CSC3=N2)cc1 (configuration not stated) was 2.94 µM

Tested system U251 CNS; GI50 recorded for COCc1c(-c2cc3cc(C)cc(OC)c3s2)c2c(N)ncnn2c1CN1CCNC(=O)C1 was 3.86 µM

Tested system U251 CNS; GI50 recorded for COc1ccc2c(c1OC)CO[C@@H]2[C@H]1c2c(cc3c(c2OC)OCO3)CCN1S(=O)(=O)c1cn(C)cn1 was 2.24 µM

Tested system U251 CNS; GI50 recorded for COc1cc(Nc2ncc(-c3ccccc3)o2)cc(OC)c1 was > 25 µM

Tested system U251 CNS; GI50 recorded for Cc1ccc(/C=N/Nc2nc(Nc3ccccc3)nc(-n3nc(C)cc3C)n2)cc1 was 4.88 µM
